- subjectOfTest: Recombinant human IKKβ (residues 1-737) (Homo sapiens, UniProt O14920)
- Construct: Recombinant human IKKβ (residues 1-737); GST (C); made in house
- experiment: IKK2 assay (TR-FRET)
- Format: biochemical
- measurementContext: ATP 1 μM final, read-out: pIC50 against IKK2 (converted)
Structures can show the parent of a compound that is named as a salt.
resultType: IC50

A selection of reference data follows.
Consider the compound shown here: CCS(=O)(=O)N1CCC(c2c[nH]c3c(C(N)=O)cc(-c4cc(C#N)cc(CN(C)C)c4)cc23)CC1 [Example 358, trifluoroacetate] What is its recorded IC50? ≤ 10 µM

Consider the compound CCS(=O)(=O)N1CCC(c2c[nH]c3c(C(N)=O)cc(-c4cc(CNCC5CC5)ccc4F)cc23)CC1 [Example 339, trifluoroacetate] and give its measured IC50. ≤ 10 µM

Continuing:
// IC50 lookup, key: `CCS(=O)(=O)N1CCC(c2c[nH]c3c(C(N)=O)cc(-c4ccc5c(c4)CN(CC4CC4)C5)cc23)CC1` ≤ 10 µM

====

- subjectOfTest: Recombinant human IKKβ (residues 1-737) (Homo sapiens, UniProt O14920)
- Construct: Recombinant human IKKβ (residues 1-737); GST (C); made in house
- Sequence (O14920 1-737): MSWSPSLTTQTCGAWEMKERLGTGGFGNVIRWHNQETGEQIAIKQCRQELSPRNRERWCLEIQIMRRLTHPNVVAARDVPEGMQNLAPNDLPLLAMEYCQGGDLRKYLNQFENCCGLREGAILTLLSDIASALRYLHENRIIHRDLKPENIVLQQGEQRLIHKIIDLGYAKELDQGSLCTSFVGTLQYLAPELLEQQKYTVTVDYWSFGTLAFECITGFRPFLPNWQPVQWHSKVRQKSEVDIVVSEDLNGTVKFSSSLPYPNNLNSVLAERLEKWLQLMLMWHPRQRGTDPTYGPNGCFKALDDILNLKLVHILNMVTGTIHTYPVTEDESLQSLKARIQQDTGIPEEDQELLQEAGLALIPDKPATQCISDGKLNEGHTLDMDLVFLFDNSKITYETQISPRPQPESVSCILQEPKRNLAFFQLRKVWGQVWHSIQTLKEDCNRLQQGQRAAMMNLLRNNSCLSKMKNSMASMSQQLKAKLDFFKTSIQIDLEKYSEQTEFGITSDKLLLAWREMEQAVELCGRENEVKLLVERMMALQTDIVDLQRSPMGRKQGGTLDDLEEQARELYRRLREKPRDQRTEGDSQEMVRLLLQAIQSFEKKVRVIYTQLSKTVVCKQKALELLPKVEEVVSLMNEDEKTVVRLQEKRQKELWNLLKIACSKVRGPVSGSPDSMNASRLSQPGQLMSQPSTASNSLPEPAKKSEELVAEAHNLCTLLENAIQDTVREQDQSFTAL
- experiment: IKK2 assay (TR-FRET)
- Assay type: biochemical
- measurementContext: ATP 1 μM final, read-out: pIC50 against IKK2 (converted)
Structures can show the parent of a compound that is named as a salt.
I'd appreciate it if you could supply IC50 values for the items below.

Use the examples below as a reference point.
// lookup IC50 | system=Recombinant human IKKβ (residues 1-737) (Homo sapiens, UniProt O14920) | key= CCS(=O)(=O)N1CCC(c2c[nH]c3c(C(N)=O)cc(-c4cccc(C5CCCCN5)c4)cc23)CC1 (stereo not drawn) [Example 279, trifluoroacetate] ≤ 10 µM

Recall the recorded IC50 for CCS(=O)(=O)N1CCC(c2c[nH]c3c(C(N)=O)cc(-c4ccc(CNC[C@@H](C)O)cc4)cc23)CC1 [Example 152, trifluoroacetate] with Recombinant human IKKβ (residues 1-737) (Homo sapiens, UniProt O14920) and state it. ≤ 10 µM

Short answer please: IC50, Recombinant human IKKβ (residues 1-737) (Homo sapiens, UniProt O14920), entry CCS(=O)(=O)N1CCC(c2c[nH]c3c(C(N)=O)cc(-c4cccc(C(C)NC5CCC5)c4)cc23)CC1 (stereo not drawn) [Example 295, trifluoroacetate] ≤ 10 µM

Form: Entry = CCCCN(C)Cc1cc(-c2cc(C(N)=O)c3[nH]cc(C4CCN(S(=O)(=O)CC)CC4)c3c2)cs1 [Example 67, trifluoroacetate] | System = Recombinant human IKKβ (residues 1-737) (Homo sapiens, UniProt O14920) | IC50 = ____ ≤ 10 µM

Batch: IC50 for all items listed.
1. CCS(=O)(=O)N1CCC(c2c[nH]c3c(C(N)=O)cc(-c4ccc(CNC)cc4)cc23)CC1 [Example 139, trifluoroacetate]
2. CCS(=O)(=O)N1CCC(c2c[nH]c3c(C(N)=O)cc(-c4ccc(F)c(CNC5CCC5)c4)cc23)CC1 [Example 275, trifluoroacetate]

["≤ 10 µM", "≤ 10 µM"]

====

- subjectOfTest: Recombinant human IKKβ (residues 1-737) (Homo sapiens, UniProt O14920)
- Construct: Recombinant human IKKβ (residues 1-737); GST (C); made in house
- Sequence (O14920 1-737): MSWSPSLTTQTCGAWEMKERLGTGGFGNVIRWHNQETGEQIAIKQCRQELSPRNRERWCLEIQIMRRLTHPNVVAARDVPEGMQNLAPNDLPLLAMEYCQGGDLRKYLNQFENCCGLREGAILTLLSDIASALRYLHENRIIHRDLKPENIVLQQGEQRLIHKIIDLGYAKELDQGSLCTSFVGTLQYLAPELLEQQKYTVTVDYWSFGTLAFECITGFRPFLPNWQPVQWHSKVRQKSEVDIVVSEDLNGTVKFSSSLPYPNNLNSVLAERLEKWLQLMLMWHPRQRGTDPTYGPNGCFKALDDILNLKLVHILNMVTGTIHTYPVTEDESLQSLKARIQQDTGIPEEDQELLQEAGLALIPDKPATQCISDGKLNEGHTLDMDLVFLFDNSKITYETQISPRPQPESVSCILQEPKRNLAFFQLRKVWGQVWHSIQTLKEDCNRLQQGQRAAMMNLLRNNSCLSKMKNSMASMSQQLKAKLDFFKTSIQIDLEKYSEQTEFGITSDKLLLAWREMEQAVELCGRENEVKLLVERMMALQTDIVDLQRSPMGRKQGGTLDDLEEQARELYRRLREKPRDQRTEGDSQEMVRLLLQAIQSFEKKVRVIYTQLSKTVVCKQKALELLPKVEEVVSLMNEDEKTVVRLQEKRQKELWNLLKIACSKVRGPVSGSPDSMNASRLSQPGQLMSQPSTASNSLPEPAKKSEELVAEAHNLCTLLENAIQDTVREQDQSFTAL
- experiment: IKK2 assay (TR-FRET)
- Type: biochemical
- measurementContext: ATP 1 μM final, read-out: pIC50 against IKK2 (converted)
Where a name gives a salt, the structure may show the parent alone.
For each of the compounds below, state its IC50.

Consider the compound CCC(C)N1Cc2ccc(-c3cc(C(N)=O)c4[nH]cc(C5CCN(S(=O)(=O)CC)CC5)c4c3)cc2C1 (centres unmarked) and give its measured IC50. ≤ 10 µM

Batch request: IC50 for each of the following compounds.
1. CCS(=O)(=O)N1CCC(c2c[nH]c3c(C(N)=O)cc(-c4ccc(F)c(CNC(CO)CO)c4)cc23)CC1 [Example 272, trifluoroacetate]
2. CCS(=O)(=O)N1CCC(c2c[nH]c3c(C(N)=O)cc(-c4ccc(CNC(C)C)s4)cc23)CC1
3. C=CCN(C)Cc1cc(-c2cc(C(N)=O)c3[nH]cc(C4CCN(S(=O)(=O)CC)CC4)c3c2)cs1

["≤ 10 µM", "≤ 10 µM", "≤ 10 µM"]

Consider the following items and state reported IC50 for each.
1. CCS(=O)(=O)N1CCC(c2c[nH]c3c(C(N)=O)cc(-c4csc(CNCC(F)(F)F)n4)cc23)CC1 [Example 40, trifluoroacetate]
2. CCS(=O)(=O)N1CCC(c2c[nH]c3c(C(N)=O)cc(-c4ccc(CN5CCCC5)s4)cc23)CC1 [Example 239, trifluoroacetate]
3. CCS(=O)(=O)N1CCC(c2c[nH]c3c(C(N)=O)cc(-c4cc(CN(C)C)cc(CN(C)C)c4)cc23)CC1 [Example 278, trifluoroacetate]
4. CCS(=O)(=O)N1CCC(c2c[nH]c3c(C(N)=O)cc(-c4cc(F)cc(CN[C@H](C)C(C)C)c4)cc23)CC1 [Example 315, trifluoroacetate]

["≤ 10 µM", "≤ 10 µM", "> 10 µM", "≤ 10 µM"]

Dear colleague, could you send me IC50 for each of the items below? Thanks.
1. CCS(=O)(=O)N1CCC(c2c[nH]c3c(C(N)=O)cc(-c4ccc5c(c4)C(NCC(C)C)CC5)cc23)CC1 (centres unmarked) [Example 33, trifluoroacetate]
2. CCS(=O)(=O)N1CCC(c2c[nH]c3c(C(N)=O)cc(-c4cc(CN5CCOCC5)ccc4F)cc23)CC1 [Example 341, trifluoroacetate]
3. CCNCCc1ccc(-c2cc(C(N)=O)c3[nH]cc(C4CCN(S(=O)(=O)CC)CC4)c3c2)cc1

1. ≤ 10 µM
2. ≤ 10 µM
3. ≤ 10 µM

Give IC50 for each listed item.
1. CCNCc1ccc(-c2cc(C(N)=O)c3[nH]cc(C4CCN(S(=O)(=O)CC)CC4)c3c2)cc1
2. CCNCc1cc(-c2cc(C(N)=O)c3[nH]cc(C4CCN(S(=O)(=O)CC)CC4)c3c2)cs1 [Example 233, trifluoroacetate]
3. CCS(=O)(=O)N1CCC(c2c[nH]c3c(C(N)=O)cc(-c4csc(CN5CCC[C@@H]5COC)c4)cc23)CC1 [Example 124, trifluoroacetate]
4. CCS(=O)(=O)N1CCC(c2c[nH]c3c(C(N)=O)cc(-c4ccc(CN[C@@H](C)C(C)(C)C)s4)cc23)CC1
5. CCS(=O)(=O)N1CCC(c2c[nH]c3c(C(N)=O)cc(-c4csc(CN(C)C(C)c5cccs5)c4)cc23)CC1 (centres unmarked) [Example 81, trifluoroacetate]

1. ≤ 10 µM
2. ≤ 10 µM
3. ≤ 10 µM
4. ≤ 10 µM
5. ≤ 10 µM

Please supply IC50 for each of the following items, keeping them in order.
1. CCS(=O)(=O)N1CCC(c2c[nH]c3c(C(N)=O)cc(-c4cncc(CNCCC#N)c4)cc23)CC1
2. CCS(=O)(=O)N1CCC(c2c[nH]c3c(C(N)=O)cc(-c4cc(F)cc(CN5CCCCC5)c4)cc23)CC1 [Example 291, trifluoroacetate]
3. CCC(c1cc(-c2cc(C(N)=O)c3[nH]cc(C4CCN(S(=O)(=O)CC)CC4)c3c2)cs1)N1CCCC1 (centres unmarked) [Example 219, trifluoroacetate]
4. CCS(=O)(=O)N1CCC(c2c[nH]c3c(C(N)=O)cc(-c4cc(F)cc(CNCC(C)(C)C)c4)cc23)CC1 [Example 321, trifluoroacetate]
5. CCS(=O)(=O)N1CCC(c2c[nH]c3c(C(N)=O)cc(-c4csc(CN(C)Cc5cccs5)c4)cc23)CC1 [Example 80, trifluoroacetate]
6. CCS(=O)(=O)N1CCC(c2c[nH]c3c(C(N)=O)cc(-c4cc(CNCC(C)C)ccc4F)cc23)CC1 [Example 335, trifluoroacetate]
7. CCS(=O)(=O)N1CCC(c2c[nH]c3c(C(N)=O)cc(-c4ccc(CCNC(=O)C5CCCCC5)cc4)cc23)CC1

1: ≤ 10 µM; 2: ≤ 10 µM; 3: ≤ 10 µM; 4: ≤ 10 µM; 5: ≤ 10 µM; 6: ≤ 10 µM; 7: ≤ 10 µM

Need IC50 for each of these compounds.
1. CCS(=O)(=O)N1CCC(c2c[nH]c3c(C(N)=O)cc(-c4cc(CNC)ccc4F)cc23)CC1 [Example 333, trifluoroacetate]
2. CCS(=O)(=O)N1CCC(c2c[nH]c3c(C(N)=O)cc(-c4cccc(CNC(=O)C5CC5)c4)cc23)CC1
3. CCCNCCc1cccc(-c2cc(C(N)=O)c3[nH]cc(C4CCN(S(=O)(=O)CC)CC4)c3c2)c1 [Example 347, trifluoroacetate]

1: ≤ 10 µM; 2: ≤ 10 µM; 3: ≤ 10 µM

Just for reference, patent US8063071B2 is where these values come from.
